Biological target: GPR84 (Homo sapiens (Human), UniProt Q9NQS5)
Sequence (Q9NQS5 whole entry): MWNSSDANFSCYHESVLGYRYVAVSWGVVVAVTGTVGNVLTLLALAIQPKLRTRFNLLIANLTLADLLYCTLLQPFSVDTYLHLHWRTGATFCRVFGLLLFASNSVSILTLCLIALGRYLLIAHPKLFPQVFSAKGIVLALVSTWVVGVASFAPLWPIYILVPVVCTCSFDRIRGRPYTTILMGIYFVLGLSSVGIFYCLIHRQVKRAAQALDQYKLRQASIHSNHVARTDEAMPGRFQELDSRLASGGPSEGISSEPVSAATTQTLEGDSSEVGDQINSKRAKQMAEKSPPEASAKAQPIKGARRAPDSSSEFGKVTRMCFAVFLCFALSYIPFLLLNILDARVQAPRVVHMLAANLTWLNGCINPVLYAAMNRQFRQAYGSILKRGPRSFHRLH
Assay: Gai biosensor BRET assay (GPR84-mediated activation of Gai, antagonist mode against agonist ZQ-16)
Type: cell-based
Conditions: compound tested at 25 μM (concentration code G)
Measured inhibition at 25 µM of individual entries

| COMPOUND | MEASUREMENT_TARGET | inhibition at 25 µM |
| --- | --- | --- |
| FC(F)(F)COc1ccc(-c2cc(OCC3COCCO3)cc3c2OCCO3)cc1 (stereo not shown) [Compound I-155] | GPR84 (Homo sapiens (Human), UniProt Q9NQS5) | < 25% |
| Cc1cc(OCC2COCCO2)cc(=O)n1Cc1ccc(C#CC2CC2)cc1 (stereo not shown) [Compound I-35] | GPR84 (Homo sapiens (Human), UniProt Q9NQS5) | 25 to 50% |
| O=C(CC1COCCO1)N1Cc2ccc(C#CC3CC3)cc2C1 (stereo not shown) [Compound I-177] | GPR84 (Homo sapiens (Human), UniProt Q9NQS5) | < 25% |
| Cc1ccc(-c2ccc(Cn3c(C)cc(OCC4COCCO4)cc3=O)cc2)cn1 (stereo not shown) [Compound I-91] | GPR84 (Homo sapiens (Human), UniProt Q9NQS5) | < 25% |
| COc1cc(OCC2CCCOC2)cc(-c2ccc(-c3ccc(C)nc3)cc2C)n1 (stereo not shown) [Compound I-45] | GPR84 (Homo sapiens (Human), UniProt Q9NQS5) | 25 to 50% |

Give its inhibition at 25 µM value. Item: FC(F)(F)COc1ccc(-c2nc(OCC3COCCO3)cc3c2OCCO3)cc1 (stereo not shown) [Compound I-158]
< 25%

Also check Cc1cc(OCc2ccccn2)ccc1-c1cc(OCC2COCCO2)cc(=O)[nH]1 (stereo not shown) [Compound I-71]
< 25%

###

Target: GPR84 (Homo sapiens (Human), UniProt Q9NQS5)
Experiment: Gai biosensor BRET assay (GPR84-mediated activation of Gai, antagonist mode against agonist ZQ-16)
Assay type: cell-based
Conditions: compound tested at 10 μM (concentration code D)
MEASURED_PROPERTY: inhibition at 10 µM

Before answering, review these 4 worked examples.
| COMPOUND | READING |
| --- | --- |
| Cc1cc(C#CC2CC2)cnc1C(C)n1ccc(OCc2ncccn2)cc1=O (centres unmarked) [Compound I-254] | < 25% |
| CC(c1ccc(C#CC2CC2)cn1)n1ccc(OCc2ncccn2)cc1=O (centres unmarked) [Compound I-249] | 25 to 50% |
| Cc1cc(OCn2cccn2)cc(=O)n1[C@H](C)c1ccc(C#CC2CC2)cc1 [Compound I-295] | > 75% |
| Cc1cc(OCc2cnn(C)n2)cc(=O)n1[C@H](C)c1ccc(C#CC2CC2)cc1 [Compound I-358] | > 75% |

Give its inhibition at 10 µM value. Item: CCC(c1ccc(C#CC2CC2)cc1)n1c(C)cc(OCC2COCCO2)cc1=O (centres unmarked) [Compound I-21]
50 to 75%

Also check Cc1cc(OCC2COCCO2)cc(=O)n1[C@H](C)c1ccc(C#CCNS(=O)(=O)C2CC2)cc1 (some centres unmarked) [Compound I-149]
< 25%

Also check Cc1cc(C#CC2CC2)ccc1C(C)n1ccc(OC[C@@H]2COCCO2)cc1=O (some centres unmarked) [Compound I-239]
< 25%

Also check Cc1cc(OC[C@@H]2CCCCO2)cc(=O)n1[C@H](C)c1ccc(C#CC2CC2)cc1 (stereo in doubt) [Compound I-144]
> 75%

Also check Cc1cc(OCc2ncccn2)cc(=O)n1C(C)c1cccc(C#CC2CC2)c1 (centres unmarked) [Compound I-261]
< 25%

Also check Cc1cc(OCc2cnc(C3CC3)cn2)cc(=O)n1[C@H](C)c1ccc(C#CC2CC2)cc1 [Compound I-323]
> 75%

Also check Cc1cc(OCC2COCCO2)cc(=O)n1C(C)c1ccc(OCC(F)(F)F)cc1 (centres unmarked) [Compound I-99]
< 25%

Also check Cc1cc(OCC2COCCO2)cc(=O)n1C(C)c1ccc(C#CC2CC2)s1 (centres unmarked) [Compound I-220]
< 25%

Also check Cc1nc(OCc2ccc(C#CC3CC3)cc2C)cc(OCC2COCCO2)n1 (centres unmarked) [Compound I-23]
< 25%

###

Measured inhibition at 10 µM of individual entries
Molecular target: UniProt:Q9NQS5
Assay: Gai biosensor BRET assay (GPR84-mediated activation of Gai, antagonist mode against agonist ZQ-16)
Assay type: cell-based
Details: compound tested at 10 μM (concentration code D)

Before answering, review these 3 worked examples.
| COMPOUND | inhibition at 10 µM |
| --- | --- |
| Cc1cc(OCC2COCCO2)cc(=O)n1C(C)c1ccc(C#CC2CC2)cn1 (stereo not shown) | < 25% |
| O=c1cc(OCC2COCCO2)nc(-c2ccc(C#CC3CC3)cc2)[nH]1 (stereo not shown) | < 25% |
| CC(c1ccc(C#CC2CC2)cn1)n1ccc(OC[C@@H]2COCCO2)cc1=O (stereo partly shown) | 25 to 50% |

Could you now look at the following compound, please?
Give its inhibition at 10 µM value. Item: Cn1c(-c2ccc(C#CC3CC3)cc2)cc(=O)n(C[C@H]2COCCO2)c1=O
< 25%

###

Molecular target: GPR84 (Homo sapiens (Human), UniProt Q9NQS5)
Test: Gai biosensor BRET assay (GPR84-mediated activation of Gai, antagonist mode against agonist ZQ-16)
Format: cell-based
Details: compound tested at 10 μM (concentration code D)
MEASURED_PROPERTY: inhibition at 10 µM

| MOLECULE | inhibition at 10 µM |
| --- | --- |
| Cc1cc(OCC2COCCO2)cc(=O)n1Cc1cccc(C#CCNCc2ccccc2)c1 (centres unmarked) | < 25% |
| Cc1cc(OCc2ncccn2)cc(=O)n1C(C)c1cnc(C#CC2CC2)nc1 (centres unmarked) | < 25% |
| Cc1cc(OCc2ncccn2)nc(=O)n1C(C)c1ccc(C#CC2CC2)cc1 (centres unmarked) | 50 to 75% |
| Cc1cc(OCC(F)(F)F)ccc1-c1cncc(OCC2CCCCO2)c1 (centres unmarked) | 25 to 50% |
| Cc1cc(OCC2COCCO2)cc(=O)n1C(C)c1ccc(C#CC(C)(C)C)cc1 (centres unmarked) | < 25% |
| Cc1cc(OCc2ncccn2)cc(=O)n1[C@H](C)c1ccccc1 | < 25% |

Give its inhibition at 10 µM value. Item: Cc1cc(OCC2COCCO2)cc(=O)n1-c1cccc(C#CC2CC2)c1 (centres unmarked)
50 to 75%

Also check Cc1cc(OCc2ncccn2)cc(=O)n1[C@@H](C)Cc1ccc(C#CC2CC2)cc1 (stereo in doubt)
< 25%

###

Target: GPR84 (Homo sapiens (Human))
Experiment: Gai biosensor BRET assay (GPR84-mediated activation of Gai, antagonist mode against agonist ZQ-16)
Type: cell-based
Conditions: compound tested at 10 μM (concentration code D)
MEASURED_PROPERTY: inhibition at 10 µM

Before answering, review these 3 worked examples.
| COMPOUND | MEASUREMENT_TARGET | inhibition at 10 µM |
| --- | --- | --- |
| CCCOc1ccc(C(C)n2c(C)cc(OCc3ncccn3)cc2=O)cc1 (centres unmarked) [Compound I-343] | GPR84 (Homo sapiens (Human)) | < 25% |
| COc1ccc([C@@H](C)n2c(C)cc(OCc3ncccn3)cc2=O)cc1 [Compound I-301] | GPR84 (Homo sapiens (Human)) | < 25% |
| Cc1cc(OCc2ncccn2)cc(=O)n1C(C)c1ccc(C#CC2CCC2)c(F)c1 (centres unmarked) [Compound I-366] | GPR84 (Homo sapiens (Human)) | > 75% |

Could you now look at the following compound, please?
Give its inhibition at 10 µM value. Item: CC1(C)CN(c2cccc(Cn3ccc(OCC4COCCO4)cc3=O)c2)C1 (centres unmarked) [Compound I-228]
< 25%

###

Target: GPR84 (Homo sapiens (Human), UniProt Q9NQS5)
Test: Gai biosensor BRET assay (GPR84-mediated activation of Gai, antagonist mode against agonist ZQ-16)
Assay type: cell-based
Settings: compound tested at 10 μM (concentration code D)
MEASURED_PROPERTY: inhibition at 10 µM

Before answering, review these 5 worked examples.
| COMPOUND | inhibition at 10 µM |
| --- | --- |
| O=C(CC1CCCCO1)N1CCc2cc(C#CC3CC3)ccc2C1 (centres unmarked) [Compound I-187] | 25 to 50% |
| Cc1cc([C@@H](C)n2c(C)cc(OCc3ncccn3)cc2=O)ccc1C#CC1CC1 [Compound I-373] | > 75% |
| CC#Cc1ccc([C@@H](C)n2c(C)cc(OCC3COCCO3)cc2=O)cc1 (some centres unmarked) [Compound I-219] | 50 to 75% |
| Cc1cc(OCC2Oc3ccccc3O2)cc(=O)n1[C@H](C)c1ccc(C#CC2CC2)cc1 [Compound I-230] | < 25% |
| Cc1cc(OCc2ncccn2)cc(=O)n1[C@H](C)c1ccc(C#CC2CC2)cc1 [Compound I-223] | > 75% |

Give its inhibition at 10 µM value. Item: CC1(C)CN(c2cccc(Cn3ccc(OCc4ncccn4)cc3=O)c2)C1 [Compound I-248]
25 to 50%

Also check Cc1cc(OCc2ncccn2)cc(=O)n1[C@H](C)c1ccc(C#N)cc1 [Compound I-243]
< 25%

Also check Cc1cc(C#CC2CC2)ccc1Cn1c(C)nc(OCC2COCCO2)cc1=O (centres unmarked) [Compound I-113]
< 25%
